- Protocol: gradient 5% acetonitrile 3 min, to 50% in 2 min, to 85% in 15 min, held 3 min, 100 µL/min
- Condition Summary: column: Zorbax Extend-C18 2.1 x 50 mm; eluents: water / acetonitrile, 0.1% formic acid
Test Readout: RP-LC retention time (s)

COC(=O)c1cn(CC(=O)Nc2cc(Cl)ccc2OC)c2nc(C)ccc2c1=O    780
Cc1ccc2[nH]cc(CCNC(=O)c3cc(-c4cccnc4)nc4ccccc34)c2c1    784
COc1ccc(NC(=O)C2CCN(S(C)(=O)=O)c3ccccc3O2)cc1 (configuration not stated)    824
CC1(C)CC(=O)c2cn(-c3ccccc3)c(=O)c(C(=O)Nc3ccccc3)c2C1    803
Cc1ccc(N2CCC(NC(=O)Nc3ccccc3)C2=O)cc1 (configuration not stated)    811
COc1ccc(-c2nnc(-c3cc(S(N)(=O)=O)ccc3Cl)o2)cc1    792
Cc1nnc(-c2ccc3ccn(CC(=O)NCc4ccccc4Cl)c3c2)o1    779

This collection of values is drawn from the METLIN SMRT retention time set (Domingo-Almenara et al. 2019).
